In this section, each of the binders is paired with its reported Ki.
System Tested: T1, human GIP receptor (human, UniProt P48546 22-466)
T1 construct: whole, on cells; Transiently transfected COS-7 cells expressing the human GIP receptor; also called hGIPR
T1 sequence (looked up): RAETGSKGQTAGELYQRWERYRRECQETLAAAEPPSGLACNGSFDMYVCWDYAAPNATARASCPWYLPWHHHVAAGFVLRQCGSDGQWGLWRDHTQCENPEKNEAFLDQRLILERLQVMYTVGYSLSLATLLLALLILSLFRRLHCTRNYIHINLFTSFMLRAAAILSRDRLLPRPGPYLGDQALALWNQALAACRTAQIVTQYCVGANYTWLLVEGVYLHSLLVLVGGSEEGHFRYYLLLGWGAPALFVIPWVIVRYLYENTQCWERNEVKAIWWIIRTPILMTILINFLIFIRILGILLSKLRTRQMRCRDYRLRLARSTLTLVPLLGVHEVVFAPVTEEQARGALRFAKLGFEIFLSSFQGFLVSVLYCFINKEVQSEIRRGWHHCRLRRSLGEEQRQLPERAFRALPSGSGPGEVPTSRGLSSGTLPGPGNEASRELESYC
Experiment Notes: 125I-hGIP(1-42) competition binding, COS-7 cells expressing human GIPR, without HSA;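 further: nonspecific binding defined as radioligand bound to cells lacking the transfected receptor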
Ends that are not written are not given here.
Reported Endpoint: Ki (nM)

>>> assay_result("TFISDYSIAMDKIHQQDFVNWLLAQK-NH2 (Not lipidated) [hGIP(5-30)NH2]")
6.3
>>> assay_result("TKISDYSIAMDKIHQQDFVNWLLAQK (C16-diacid (1,16-hexadecanedioic acid) on Lys at position 6 in GIP numbering (residue 2 of the entry); C-terminal amide) [AT168 [hGIP(5-30)NH2[F6K]-C16diacid/6]]")
41.3
